- Test target: Histone deacetylase 2 (Homo sapiens, UniProt Q92769)
- Sequence (Q92769 whole entry): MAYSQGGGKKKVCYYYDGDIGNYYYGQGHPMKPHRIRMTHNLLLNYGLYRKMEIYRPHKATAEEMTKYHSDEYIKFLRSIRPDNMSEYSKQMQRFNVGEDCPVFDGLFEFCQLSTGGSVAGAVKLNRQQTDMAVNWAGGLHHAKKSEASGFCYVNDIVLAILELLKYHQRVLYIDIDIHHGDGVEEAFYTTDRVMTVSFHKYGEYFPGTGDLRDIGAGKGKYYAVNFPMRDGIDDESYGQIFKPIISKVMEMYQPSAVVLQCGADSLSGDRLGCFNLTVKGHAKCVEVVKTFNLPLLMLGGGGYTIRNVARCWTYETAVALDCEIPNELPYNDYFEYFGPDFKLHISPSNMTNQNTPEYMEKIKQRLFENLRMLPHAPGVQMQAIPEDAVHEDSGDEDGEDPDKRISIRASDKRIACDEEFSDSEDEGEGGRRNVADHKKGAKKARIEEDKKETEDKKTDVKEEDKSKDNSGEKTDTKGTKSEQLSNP
- Assay comment: Inhibition of HDAC2 (unknown origin) using (FAM)-labeled acetylated peptide as substrate measured after 17 hrs by fluorescence assay
Readings of IC50 for the listed compounds
Give the figure together with its unit, number first.

Give its IC50 value. Item: "CC(=O)Nc1cccc(-c2csc(NC(=O)CCCCCC(=O)Nc3ccccc3N)n2)c1" 0.2 µM

# input compound: "CC(C)(C)OC(=O)Nc1cccc(-c2csc(NC(=O)CCCCCC(=O)Nc3ccccc3N)n2)c1" ; wanted: its IC50 1.1 µM

Give its IC50 value. Item: "Nc1cccc(-c2csc(NC(=O)CCCCCC(=O)Nc3ccccc3N)n2)c1" 0.147 µM

# lookup: IC50 of "Nc1cccc(-c2csc(NC(=O)CCCCCC(=O)NO)n2)c1" 0.0265 µM

State the recorded IC50 for this entry: "CC(C)(C)OC(=O)Nc1cccc(-c2csc(NC(=O)CCCCCC(=O)NO)n2)c1" 0.021 µM

Consider the compound "CCOC(=O)Nc1cccc(-c2csc(NC(=O)CCCCCC(=O)Nc3ccccc3N)n2)c1" and give its measured IC50. 0.88 µM

Dear colleague, I am looking for the recorded IC50 of the following compound: "CCOC(=O)Nc1cccc(-c2csc(NC(=O)CCCCCC(=O)NO)n2)c1" 0.0245 µM

* * *

- Test target: Polyamine deacetylase HDAC10 (Homo sapiens)
- Sequence (Q969S8 whole entry): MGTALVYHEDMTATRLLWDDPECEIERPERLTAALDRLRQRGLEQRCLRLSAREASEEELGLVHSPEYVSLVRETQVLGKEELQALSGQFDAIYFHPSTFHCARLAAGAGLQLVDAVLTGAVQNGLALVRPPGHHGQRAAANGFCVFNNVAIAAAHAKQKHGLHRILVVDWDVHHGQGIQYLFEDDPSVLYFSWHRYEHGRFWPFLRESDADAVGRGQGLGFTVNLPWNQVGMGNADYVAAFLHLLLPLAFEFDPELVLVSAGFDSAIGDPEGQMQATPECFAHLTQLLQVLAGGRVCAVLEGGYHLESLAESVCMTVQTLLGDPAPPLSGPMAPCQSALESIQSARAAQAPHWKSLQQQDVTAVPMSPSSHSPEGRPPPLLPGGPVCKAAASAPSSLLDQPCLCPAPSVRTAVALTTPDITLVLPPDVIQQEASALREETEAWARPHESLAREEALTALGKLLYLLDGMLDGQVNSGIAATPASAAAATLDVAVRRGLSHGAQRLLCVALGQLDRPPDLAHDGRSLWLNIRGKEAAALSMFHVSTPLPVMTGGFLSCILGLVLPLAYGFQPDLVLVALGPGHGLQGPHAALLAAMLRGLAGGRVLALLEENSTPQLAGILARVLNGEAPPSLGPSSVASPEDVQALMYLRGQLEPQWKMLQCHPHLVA
Overview of recorded IC50 for various compounds
Kindly answer with a numeric value in nM, unit omitted.

Nc1cccc(-c2csc(NC(=O)CCCCCC(=O)Nc3ccccc3N)n2)c1 : 2910

Under Polyamine deacetylase HDAC10 (Homo sapiens): IC50 value of "Nc1cccc(-c2csc(NC(=O)CCCCCC(=O)NO)n2)c1" ? 3.7

# returns recorded IC50 (system: Polyamine deacetylase HDAC10 (Homo sapiens)) for "CC(C)(C)OC(=O)Nc1cccc(-c2csc(NC(=O)CCCCCC(=O)Nc3ccccc3N)n2)c1" 5300

* * *

- Test target: Protein deacetylase HDAC6 (Homo sapiens, UniProt Q9UBN7)
- Sequence (Q9UBN7 whole entry): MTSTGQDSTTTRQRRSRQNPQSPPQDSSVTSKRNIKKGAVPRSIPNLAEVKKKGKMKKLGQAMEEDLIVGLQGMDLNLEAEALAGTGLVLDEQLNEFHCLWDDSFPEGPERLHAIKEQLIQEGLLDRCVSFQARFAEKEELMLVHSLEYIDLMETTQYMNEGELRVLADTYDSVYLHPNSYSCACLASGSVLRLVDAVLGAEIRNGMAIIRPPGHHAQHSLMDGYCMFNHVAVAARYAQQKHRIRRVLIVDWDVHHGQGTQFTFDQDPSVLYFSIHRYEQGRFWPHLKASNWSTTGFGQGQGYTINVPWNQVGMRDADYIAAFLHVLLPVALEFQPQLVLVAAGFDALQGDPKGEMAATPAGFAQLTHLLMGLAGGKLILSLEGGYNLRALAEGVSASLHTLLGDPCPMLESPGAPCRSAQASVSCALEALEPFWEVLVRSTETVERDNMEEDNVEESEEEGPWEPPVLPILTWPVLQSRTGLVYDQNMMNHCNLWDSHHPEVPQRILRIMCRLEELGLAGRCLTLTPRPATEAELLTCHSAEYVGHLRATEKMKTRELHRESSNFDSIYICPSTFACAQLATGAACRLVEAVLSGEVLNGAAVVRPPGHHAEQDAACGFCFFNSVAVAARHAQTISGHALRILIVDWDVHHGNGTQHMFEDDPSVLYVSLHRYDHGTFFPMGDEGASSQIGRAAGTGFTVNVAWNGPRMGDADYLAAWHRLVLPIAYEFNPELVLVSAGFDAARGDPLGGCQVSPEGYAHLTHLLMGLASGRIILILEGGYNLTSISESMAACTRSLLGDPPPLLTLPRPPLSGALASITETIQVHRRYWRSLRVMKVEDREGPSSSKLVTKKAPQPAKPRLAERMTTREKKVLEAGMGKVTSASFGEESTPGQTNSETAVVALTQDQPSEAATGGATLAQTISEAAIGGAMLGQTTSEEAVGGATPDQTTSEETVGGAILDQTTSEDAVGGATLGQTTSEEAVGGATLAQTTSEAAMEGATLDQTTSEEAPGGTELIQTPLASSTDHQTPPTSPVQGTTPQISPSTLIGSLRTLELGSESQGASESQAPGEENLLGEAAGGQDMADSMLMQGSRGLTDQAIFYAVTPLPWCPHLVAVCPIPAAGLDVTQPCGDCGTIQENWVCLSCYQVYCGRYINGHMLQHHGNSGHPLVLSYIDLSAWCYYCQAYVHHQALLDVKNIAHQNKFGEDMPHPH
- Assay comment: Inhibition of recombinant human full length N-terminal GST-tagged HDAC6 expressed in Sf9 insect cells using (S)-6-acetamido-2-(2-((S)-2-acetamido-4-methylpentanamido)acetamido)-N-(4-methyl-2-oxo-2H-chromen-7-yl)hexanamide as substrate by fluorescence assay
Parameter: IC50

Would you mind telling me what IC50 value was observed for "Nc1ccccc1NC(=O)c1cnccn1" ? > 20 µM
